The reported numbers originate from patent US20070077617.

# Subject of test: fusion protein PRA
# Sequence (chain, as listed by the source): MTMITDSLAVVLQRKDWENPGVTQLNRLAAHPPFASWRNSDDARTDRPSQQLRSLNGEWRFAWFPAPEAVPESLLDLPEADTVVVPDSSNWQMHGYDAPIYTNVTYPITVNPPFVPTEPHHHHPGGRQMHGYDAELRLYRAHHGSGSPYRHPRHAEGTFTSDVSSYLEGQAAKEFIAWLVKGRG
Measurement kind: relative cleavage efficiency (%)
Report the value in % with no unit label.

| Protein | Measurement kind | Unit text | Quantitative result |
| --- | --- | --- | --- |
| OmpT protease variant OmpT D97S (protein) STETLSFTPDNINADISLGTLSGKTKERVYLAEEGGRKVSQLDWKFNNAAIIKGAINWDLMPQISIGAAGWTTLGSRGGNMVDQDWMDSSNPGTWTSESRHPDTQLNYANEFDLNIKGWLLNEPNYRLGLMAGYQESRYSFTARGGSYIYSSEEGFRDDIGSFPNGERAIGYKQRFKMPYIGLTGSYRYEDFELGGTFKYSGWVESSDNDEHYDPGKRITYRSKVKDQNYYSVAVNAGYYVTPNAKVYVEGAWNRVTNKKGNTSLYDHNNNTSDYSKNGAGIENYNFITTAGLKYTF | relative cleavage efficiency | % | 4 |

Notebook: OmpT protease variant OmpT D97L (protein) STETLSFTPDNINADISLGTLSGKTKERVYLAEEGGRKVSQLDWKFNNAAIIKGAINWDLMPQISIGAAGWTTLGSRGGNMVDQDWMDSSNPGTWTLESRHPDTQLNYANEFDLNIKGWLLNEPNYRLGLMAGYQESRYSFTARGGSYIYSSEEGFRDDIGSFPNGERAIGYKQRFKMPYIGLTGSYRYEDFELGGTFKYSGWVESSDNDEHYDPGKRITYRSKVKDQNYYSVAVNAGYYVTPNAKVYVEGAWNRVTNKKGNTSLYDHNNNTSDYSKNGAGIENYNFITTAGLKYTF , relative cleavage efficiency read as 7.1
